B1: NECAB1 (parent)
chain: FSPNSPQFNVSGPGLLEEDNQWMT

# Variants of: B1
# experimental_details: protein stability index of a GFP-peptide fusion (GPS, HEK-293T) (PSI 1-6); higher = more stable;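 note: lentivirally expressed fusions sorted by FACS into six bins by GFP to DsRed ratio, PSI derived from sequencing read proportions per bin multiplied by bin number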
# condition: c terminus: a fixed tail appended
Provide the reported protein stability index of each item.
The response must contain the number and no unit.

protein stability index measured on `S2Q` = 2.95

The measured protein stability index associated with `L15Y` reads 3.05

# variant `L15I` ; its protein stability index = 2.98
